// reported inhibition per item
biological target: Hexose transporter 1 (Plasmodium falciparum) (UniProt O97467); test: ST_JUDE_LEISH: Cytotoxicity at 2uM final concentration against transgenic Leishmania Mexicana promastigotes LmPfHT that are glucose transport deficient and complemented with the Plasmodium falciparum hexose transporter. Activity is measured by DNA content using SYBR green in vitro; format: functional
QUANTITY MEASURED: inhibition (%)

{"COMPOUND": "Cc1cc(=O)c2cc(Oc3ccc(OC(F)(F)F)cc3)ccc2[nH]1", "QUANTITY MEASURED": "inhibition", "DISPLAY UNIT": "%", "MEASURED NUMBER": 0.96}
{"COMPOUND": "c1ccc2[nH]c(Nc3ccc(Nc4nc5ccccc5[nH]4)cc3)nc2c1", "QUANTITY MEASURED": "inhibition", "DISPLAY UNIT": "%", "MEASURED NUMBER": 0.37}
{"COMPOUND": "COc1cc2c(cc1C(F)(F)F)N(C(=O)Nc1cc(OC(F)(F)F)cc(-c3cccnc3)c1)CC2", "QUANTITY MEASURED": "inhibition", "DISPLAY UNIT": "%", "MEASURED NUMBER": 1.79}
{"COMPOUND": "CC(C)(CN)c1nc(-c2ccc(Br)c(O)c2)c(-c2ccncc2)[nH]1", "QUANTITY MEASURED": "inhibition", "DISPLAY UNIT": "%", "MEASURED NUMBER": 1.51}
{"COMPOUND": "COc1cccc2c(NN=Cc3cccc(F)c3)ccnc12", "QUANTITY MEASURED": "inhibition", "DISPLAY UNIT": "%", "MEASURED NUMBER": 2.06}
{"COMPOUND": "COc1cc(C(=O)N2CCOC(CCN3CCc4c(c5ccccc5n4C)C3)(c3ccc(Cl)c(Cl)c3)C2)cc(OC)c1OC (centres undefined)", "QUANTITY MEASURED": "inhibition", "DISPLAY UNIT": "%", "MEASURED NUMBER": 0}
{"COMPOUND": "O=C(NC1CCN(c2ccnc3ccccc23)C1)c1cccc(C(F)(F)F)c1 (centres undefined)", "QUANTITY MEASURED": "inhibition", "DISPLAY UNIT": "%", "MEASURED NUMBER": 1.24}
{"COMPOUND": "Cc1cc(C(=O)OCC(N)=O)c(C)n1-c1ccc(F)cc1", "QUANTITY MEASURED": "inhibition", "DISPLAY UNIT": "%", "MEASURED NUMBER": 6.13}
{"COMPOUND": "COc1ccc(NC(=O)NC2CCN(c3ccnc4cc(Cl)ccc34)CC2)cc1", "QUANTITY MEASURED": "inhibition", "DISPLAY UNIT": "%", "MEASURED NUMBER": 1.61}
{"COMPOUND": "Cc1cc(NC2CCN(Cc3ccccc3)CC2)nc(NCCCCc2ccccc2)n1", "QUANTITY MEASURED": "inhibition", "DISPLAY UNIT": "%", "MEASURED NUMBER": 17.5}
{"COMPOUND": "COc1ccc2nccc([C@@H](O)CN3CCC(NC(=O)c4cc5c(F)cc(F)cc5[nH]4)CC3)c2n1", "QUANTITY MEASURED": "inhibition", "DISPLAY UNIT": "%", "MEASURED NUMBER": 84.1}
{"COMPOUND": "CCCc1cc(N2CCC(c3ccccc3)(N3CCCCC3)CC2)nc(Nc2ccc(OC)cc2)n1", "QUANTITY MEASURED": "inhibition", "DISPLAY UNIT": "%", "MEASURED NUMBER": 16.5}
{"COMPOUND": "CC(C)c1ccc(NC(=O)NCCCC2CCCN(CCCCCNC(=O)/C=C/c3ccc(Cl)c(Cl)c3)C2)cc1 (centres undefined)", "QUANTITY MEASURED": "inhibition", "DISPLAY UNIT": "%", "MEASURED NUMBER": 2.49}
{"COMPOUND": "O=C(/C=C/c1ccc(Cl)c(Cl)c1)NCCCCCN1CCC(CCNC(=O)/C=C/c2cc(C(F)(F)F)ccc2F)CC1", "QUANTITY MEASURED": "inhibition", "DISPLAY UNIT": "%", "MEASURED NUMBER": -2.42}
{"COMPOUND": "C=C(C)Cn1cc(C2CCN(CCCCNC(=O)c3sc(-c4ccc(Cl)cc4Cl)nc3CO)CC2)c2ccccc21", "QUANTITY MEASURED": "inhibition", "DISPLAY UNIT": "%", "MEASURED NUMBER": -1.73}
{"COMPOUND": "CN1CCCc2cc(NC(=O)C=Cc3ccc(-c4ccc(F)cc4F)o3)ccc2C1", "QUANTITY MEASURED": "inhibition", "DISPLAY UNIT": "%", "MEASURED NUMBER": 5.24}
{"COMPOUND": "O=c1ccc(CNc2nc(NCCc3ccccc3)nc3ccc(Cl)cc23)c[nH]1", "QUANTITY MEASURED": "inhibition", "DISPLAY UNIT": "%", "MEASURED NUMBER": 3.7}
{"COMPOUND": "CCN(CCCN1CCCCC1)c1cc(C)nc(Nc2ccc(C)cc2C(F)(F)F)n1", "QUANTITY MEASURED": "inhibition", "DISPLAY UNIT": "%", "MEASURED NUMBER": 0.39}
{"COMPOUND": "COc1cc(CNC[C@@H](O)[C@H](Cc2ccccc2)NC(=O)c2cc(C3CCCC3)cc(N3CCCS3(=O)=O)c2)cc(OC)c1", "QUANTITY MEASURED": "inhibition", "DISPLAY UNIT": "%", "MEASURED NUMBER": 3.83}
